Recorded measurements of self-cleavage, one per entry
B1: CPEB3 Ribozyme (parent)
chain: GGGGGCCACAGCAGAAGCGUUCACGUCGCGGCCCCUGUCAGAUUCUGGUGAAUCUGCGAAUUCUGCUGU

Variants of: B1
test: self-cleavage, relative activity (ratio to wild type); higher = more cleavage; co-transcriptional

GGGGGCCGCAGCAGAAGCGUUCACGUCGCGGCCCCUGUCAGAUUCUGGUGACUCUGCGAAUUCUGCUGU
0.768
GGGGGCCACAGCAUAAGCGUUCACGUCGCGGCCCCUGUCAGAUUCUGGUGAAUCUGCGAGUUCUGCUGU
0.4
GGGGACCACAGCAGAAGCGUUCACGUCGCGGCCCGUGUCAGAUUCUGGUGAAUCUGCGAAUUCUGCUGU
0.134

Give the value of self-cleavage reported for the following: `GGGGGCCACAGCAGAAGCGUUCACGUCGCGGCCCCUGUCAGAUUCUGGUGAAUCAGCGCAUUCUGCUGU`
0.394

Give the value of self-cleavage reported for the following: `GGGGGCAACAGCAGAAGCGUUCACGUCGCGGCCCCUGUCAGAUUCUGGUGAAUCUGCGAAUUUUGCUGU`
0.515

Give the value of self-cleavage reported for the following: `GGGGGCCACAGCAGAAGCGUUCACGUCGCGGCCCCUGUCAGAUUCUGGUAAAUCUGCGGAUUCUGCUGU`
1.02

Give the value of self-cleavage reported for the following: `GGGGGCCACAACAGAAGGGUUCACGUCGCGGCCCCUGUCAGAUUCUGGUGAAUCUGCGAAUUCUGCUGU`
0.106

Give the value of self-cleavage reported for the following: `GCGGGCCACAGCGGAAGCGUUCACGUCGCGGCCCCUGUCAGAUUCUGGUGAAUCUGCGAAUUCUGCUGU`
0.084

Give the value of self-cleavage reported for the following: `GGGGGCCCCAGCAGAAGCGUUCACGUCGCGGCCCCCGUCAGAUUCUGGUGAAUCUGCGAAUUCUGCUGU`
0.819

Give the value of self-cleavage reported for the following: `GGGGGCCACAGCAGAAUCGUUCACGUCGCGGCCCCUGGCAGAUUCUGGUGAAUCUGCGAAUUCUGCUGU`
0.149

Give the value of self-cleavage reported for the following: `GGGGGCCACAGUAGAAGCGUUCACGUCGCGGCCCCUGUCAGAUUCUGGCGAAUCUGCGAAUUCUGCUGU`
0.971
